# system: pooled human IgG (human IgG1,2,3 and 4)
Items are presented alongside their recorded Enzyme Activity Endpoint Assay (purified): scIgG.
# unit: ng/µL | format: bare number

Prompt: Name the recorded Enzyme Activity Endpoint Assay (purified): scIgG of the item PRT-498 (protein) MVTSVWTKGVTPPTDFRKIVDGNIAYYHAPYKAGQGWYDITKAFDGGDDLLCGAATAGNMLHWWFDQNKEYIEAYLKKHPEKQKIMFGDQELLDVRKAINTKGSQKNSELFNYFRDKAFPNLSARRLGVMPDLVLDMFINGYYLNVTKTQTTDVNRTYQEKDKRGGIFDAVFTRGDQSKLLTSRHDLKNKGLKEISDLIKQELTEGKALGLSHTYANVRINHVINLWGADFDSDGNLKAIYVTDSDSNASIGMKKYFVGVNSAGKVAISAKEIKEDNIGAQVLGLFTLSTGQDIWNQTNLEHHHHHH in your answer.
Completion: 124

Prompt: Could you please provide reported Enzyme Activity Endpoint Assay (purified): scIgG for PRT-312 (protein) MQITSVWTKGVTPLTPEQFRENNEDVIHAPYLAHQGWYDITKAFDGKDNLLCGAATAGNMLHWWFDQNKTEIEAYLSKHPEKQKIIFGNQELFDLKAAIDTKDSQTNSQLFNYFRDKAFPNLSARQLGVMPDLVLDMFINGYYLNVGKTQSTDVNRPYQDKDKRGGIFDAVFTRGDQTTLLTARHDLKNKGLNDISTIIKQELTEGRALALSHTYANVSISHVINLWGADFNAEGNLEAIYVTDSDANPSIGMKKYFVGRNAHGHVAISAKKIEGENIGAQVLGLFTLSSGKDIWQKLS ? Thanks!
Completion: 54
